Taken from ChEMBL document CHEMBL1148966.

Measured IC50, listed per entry for reference.
system: HeLa; assay: Cytotoxicity against human HeLa cells after 72 hrs by MTT assay; format: functional, cell-based
The response must be a number in µg/mL with no trailing unit.

Below are worked cases with known answers.
Inquiry: Please provide the recorded IC50 for C[C@@H]1CC[C@@]2(OC1)O[C@H]1C[C@H]3[C@@H]4CC=C5C[C@@H](O[C@@H]6O[C@H](CO)[C@@H](O)[C@H](O[C@@H]7O[C@H](CO)[C@@H](O)[C@H](O)[C@H]7O)[C@H]6O[C@@H]6O[C@@H](C)[C@H](O)[C@@H](O)[C@H]6O)CC[C@]5(C)[C@H]4CC[C@]3(C)[C@H]1[C@@H]2C [GRACILLIN] , tested on HeLa.
Reply text: 12.7

Inquiry: Please provide the recorded IC50 for C[C@H]1[C@H]2[C@H](C[C@H]3[C@@H]4CC=C5C[C@@H](O[C@@H]6O[C@H](CO)[C@H](O[C@@H]7O[C@H](CO)[C@@H](O)[C@H](O)[C@H]7O[C@@H]7O[C@H](CO)[C@@H](O)[C@H](O)[C@H]7O)[C@H](O)[C@H]6O)CC[C@]5(C)[C@H]4CC[C@]23C)O[C@]12CC[C@@H](CO)CO2 , tested on HeLa.
Reply text: 5.24

Now examine the next entry.
Inquiry: Please provide the recorded IC50 for C[C@@H]1O[C@@H](O[C@H]2[C@H](O[C@H]3CC[C@@]4(C)C(=CC[C@H]5[C@@H]6C[C@@H]7O[C@]8(CC[C@@H](CO)CO8)[C@@H](C)[C@@H]7[C@@]6(C)CC[C@@H]54)C3)O[C@H](CO)[C@@H](O[C@@H]3O[C@@H](C)[C@H](O)[C@@H](O)[C@H]3O)[C@@H]2O)[C@H](O)[C@H](O)[C@H]1O , tested on HeLa.
Reply text: 3.62
